Provide the recorded GI50 for the entries that follow.
tested on: SK-MEL-2; experiment: NCI tumour cell line growth inhibition, 48 h
The source made the active and inactive calls. No stated cut-off is given here; in the data, active = GI50 up to about 1.1 µM and inactive = higher.

Some solved entries appear below for comparison.
INSERT INTO measurements (compound_string, experimental_result) VALUES
  ('Nc1ccc2ccc(-c3ccc[nH]3)nc2n1', '> 100 µM (inactive)'),
  ('CCOC(=O)/C(=C/c1cccc(C#N)c1)N(CC)CC', '> 100 µM (inactive)'),
  ('CNC(=O)OCC1=C(COC(=O)NC)CN(c2ccccc2)C1', '> 100 µM (inactive)'),
  ('Cc1ccc(-c2cc(=O)c3cc(C)c(C)c(C(=O)O)c3o2)cc1', '> 100 µM (inactive)'),
  ('CCOC(=O)c1c(N=C(S)Nc2ccccc2)sc2c1CCN(C)C2', '> 100 µM (inactive)');

Turning now to a further record.
Req: Entry `NC(=O)C(=CNC(=S)Nc1ccc(Cl)c(Cl)c1)C(N)=O` : reported GI50 = ?
Resp: > 81.3 µM (inactive)
